- method.notes: Matrix stability assay in fasted state simulated gastric fluid (FaSSGF)
- Format: in vitro ADME
- details: fasted state simulated gastric fluid (FaSSGF); fasted state simulated gastric fluid, pH 1.6; read-out: FaSSGF stability Half-life (converted)

# compound, half-life
rows = [
    ("CN(C)c1cc[n+](CCCCCCCCCCCCCC[n+]2ccc(N(C)C)cc2)cc1.[Br-].[Br-] [CK14, reference compound]", "> 600 min"),
    ("CN(C)c1cc[n+](CCCCCCCCCCCCCC[n+]2ccc(N3CCNCC3)cc2)cc1", "> 600 min"),
    ("CN(C)c1cc[n+](CCCCCCCCCCCC[n+]2ccc(N(C)C)cc2)cc1", "> 600 min"),
    ("CC(=O)NCCCCC(NC(=O)OC(C)(C)C)C(=O)N1CCN(c2cc[n+](CCCCCCCCCCCCCC[n+]3ccc(N(C)C)cc3)cc2)CC1 (stereo not shown)", "552 min"),
]
